# assay-system: T1, NT-4 (neurotrophin-4) (Homo sapiens, UniProt P34130 P34130:81-210)
# T1 sequence: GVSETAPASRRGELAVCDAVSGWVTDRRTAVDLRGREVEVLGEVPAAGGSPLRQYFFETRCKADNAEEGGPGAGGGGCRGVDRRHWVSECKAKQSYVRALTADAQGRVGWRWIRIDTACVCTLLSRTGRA
# test-summary: cell_activity; TF-1
# measurement-parameters: tags: R&D Systems; chain copies: 2
recorded-endpoint: IC50

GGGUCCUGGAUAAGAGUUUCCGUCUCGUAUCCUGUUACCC (ssRNA, as 82(1) except 2'-OMe C26) [SEQ ID NO: 82(9)]
< 3 nM
GGGUCCUGGAUAAGAGUUUCCGUCUCGUAUCCTGUUACCC (ssRNA, as 82(1) except dT33) [SEQ ID NO: 158]
< 3 nM
GGGUCCUGUUCAAGAGUUUCCGUCUCGUGAACUGUUACCC (ssRNA, as 88(3) plus 2'-OMe U9,U10,C11,G29) [SEQ ID NO: 88(4)]
300 nM

Just so you know, measured IC50 for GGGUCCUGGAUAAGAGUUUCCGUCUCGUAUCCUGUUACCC (ssRNA, as 82(1) except 2'-OMe U11) [SEQ ID NO: 82(4)] came out at 3.37 nM

IC50 reading for GGGUCCUGGAUAAGAGTUUCCGUCUCGUAUCCUGUUACCC (ssRNA, as 82(1) except dT17) [SEQ ID NO: 156] : < 3 nM

GET /value?item= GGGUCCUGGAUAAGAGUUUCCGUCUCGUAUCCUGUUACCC (ssRNA, as 82(1) except 2'-OMe C40) [SEQ ID NO: 82(18)] &field=IC50 returns < 3 nM
